Test: self-splicing fitness, log relative to wild type (ln ratio); higher = more splicing; Tetrahymena group I intron in knt gene, E. coli kanamycin selection, DiMSum; sequences stand for … in CUCUCU…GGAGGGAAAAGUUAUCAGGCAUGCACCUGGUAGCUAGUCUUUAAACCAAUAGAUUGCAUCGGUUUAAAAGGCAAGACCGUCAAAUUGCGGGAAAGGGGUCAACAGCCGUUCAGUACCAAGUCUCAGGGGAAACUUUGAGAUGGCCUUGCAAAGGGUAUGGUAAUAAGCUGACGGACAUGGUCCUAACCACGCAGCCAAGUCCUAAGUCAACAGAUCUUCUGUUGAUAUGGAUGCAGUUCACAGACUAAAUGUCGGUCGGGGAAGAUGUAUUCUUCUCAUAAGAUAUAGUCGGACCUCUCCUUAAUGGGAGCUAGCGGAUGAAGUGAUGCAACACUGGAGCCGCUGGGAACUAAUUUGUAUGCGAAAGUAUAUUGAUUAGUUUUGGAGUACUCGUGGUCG;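 also: selection with 25 µg/mL kanamycin versus none on LB agar overnight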
Details: 37 °C
Returns the class for an entry based on its self-splicing fitness (ln). Class ranges: one = under -2, two = from -2 up to -0.8, three = -0.8 and over

Illustrative cases are given below, each with its answer.
>  <Sequence data>
CGUGAGCAAUAUUACGAUUC

>  <Assigned label>
one

$$$$
>  <Sequence data>
UAGUAGCAAUAUUACGAGCG

>  <Assigned label>
three

$$$$
>  <Sequence data>
AUUGAGCAAUAUUACGGUCA

>  <Assigned label>
three

$$$$
>  <Sequence data>
UGAAAGCAAUAUUACGGUUA

>  <Assigned label>
three

$$$$
>  <Sequence data>
CGUAAGCAAUAUUACGCGUA

>  <Assigned label>
one

$$$$

Asked: Band of `AUGAAGCAAUAUUACGUAGA` ?
Given back: two

Asked: Band of `AAUCAGCAAUAUUACGCAGA` ?
Given back: three

Asked: Band of `GAAAAGCAAUAUUACGUUGA` ?
Given back: two

Asked: Band of `CCUGAGCAAUAUUACGUCGU` ?
Given back: one

Asked: Band of `CUAGAGCAAUAUUACGAUAU` ?
Given back: one

Asked: Band of `CUUUAGCAAUAUUACGUGGG` ?
Given back: one

Asked: Band of `UCUAAGCAAUAUUACGAACA` ?
Given back: two

Asked: Band of `UCGAAGCAAUAUUACGGAUU` ?
Given back: one

Asked: Band of `CGCAAGCAAUAUUACGGACG` ?
Given back: three

Asked: Band of `CUACAGCAAUAUUACGCGCA` ?
Given back: one

Asked: Band of `GGGCAGCAAUAUUACGUUAA` ?
Given back: three

====

Test: self-splicing fitness, log relative to wild type (ln ratio); higher = more splicing; Tetrahymena group I intron in knt gene, E. coli kanamycin selection, DiMSum; sequences stand for … in CUCUCU…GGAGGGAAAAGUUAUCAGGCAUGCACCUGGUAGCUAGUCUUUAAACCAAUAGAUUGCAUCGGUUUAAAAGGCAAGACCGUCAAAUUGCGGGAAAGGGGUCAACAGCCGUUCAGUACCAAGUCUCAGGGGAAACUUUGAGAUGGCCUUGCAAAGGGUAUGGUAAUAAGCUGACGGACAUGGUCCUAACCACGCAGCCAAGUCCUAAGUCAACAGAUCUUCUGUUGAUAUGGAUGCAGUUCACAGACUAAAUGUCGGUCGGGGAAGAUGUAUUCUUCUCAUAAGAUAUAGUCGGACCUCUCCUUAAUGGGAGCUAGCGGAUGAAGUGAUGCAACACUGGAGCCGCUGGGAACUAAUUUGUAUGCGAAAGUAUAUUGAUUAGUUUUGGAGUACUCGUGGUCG
Conditions: 37 °C
Returns the class for an entry based on its self-splicing fitness (ln). Class ranges: low bracket (below -1), middle bracket (-1 to below -0.6), high bracket (-0.6 or more)

Illustrative cases are given below, each with its answer.
>  <Sequence data>
UAGUAGCAAUAUUACGCUUG

>  <Assigned label>
high bracket

$$$$
>  <Sequence data>
AAGUAGCAAUAUUACGGGAA

>  <Assigned label>
low bracket

$$$$
>  <Sequence data>
GCGAAGCAAUAUUACGCCGU

>  <Assigned label>
low bracket

$$$$

Asked: Band of `GUGUAGCAAUAUUACGUCGU` ?
Given back: low bracket

Asked: Band of `AGACAGCAAUAUUACGUAUU` ?
Given back: low bracket

Asked: Band of `CGUCAGCAAUAUUACGACCA` ?
Given back: high bracket
